All figures here come from ChEMBL document CHEMBL5579837.

Assay: physchem
Details: PBS, pH 7.4
Property Measured: solubility at 24 h (µM)
Form entry: value (µM) — number only.

Reported solubility at 24 h for O=c1[nH]c2c(N3CCN(CCc4c[nH]c5ccc(Cl)cc45)CC3)cccc2n1Cc1ccccc1 was 23.4

---

I'd appreciate it if you could supply pIC50 values for the items below.
Target: Voltage-gated inwardly rectifying potassium channel KCNH2 (Homo sapiens, UniProt Q12809)
Sequence (Q12809 whole entry): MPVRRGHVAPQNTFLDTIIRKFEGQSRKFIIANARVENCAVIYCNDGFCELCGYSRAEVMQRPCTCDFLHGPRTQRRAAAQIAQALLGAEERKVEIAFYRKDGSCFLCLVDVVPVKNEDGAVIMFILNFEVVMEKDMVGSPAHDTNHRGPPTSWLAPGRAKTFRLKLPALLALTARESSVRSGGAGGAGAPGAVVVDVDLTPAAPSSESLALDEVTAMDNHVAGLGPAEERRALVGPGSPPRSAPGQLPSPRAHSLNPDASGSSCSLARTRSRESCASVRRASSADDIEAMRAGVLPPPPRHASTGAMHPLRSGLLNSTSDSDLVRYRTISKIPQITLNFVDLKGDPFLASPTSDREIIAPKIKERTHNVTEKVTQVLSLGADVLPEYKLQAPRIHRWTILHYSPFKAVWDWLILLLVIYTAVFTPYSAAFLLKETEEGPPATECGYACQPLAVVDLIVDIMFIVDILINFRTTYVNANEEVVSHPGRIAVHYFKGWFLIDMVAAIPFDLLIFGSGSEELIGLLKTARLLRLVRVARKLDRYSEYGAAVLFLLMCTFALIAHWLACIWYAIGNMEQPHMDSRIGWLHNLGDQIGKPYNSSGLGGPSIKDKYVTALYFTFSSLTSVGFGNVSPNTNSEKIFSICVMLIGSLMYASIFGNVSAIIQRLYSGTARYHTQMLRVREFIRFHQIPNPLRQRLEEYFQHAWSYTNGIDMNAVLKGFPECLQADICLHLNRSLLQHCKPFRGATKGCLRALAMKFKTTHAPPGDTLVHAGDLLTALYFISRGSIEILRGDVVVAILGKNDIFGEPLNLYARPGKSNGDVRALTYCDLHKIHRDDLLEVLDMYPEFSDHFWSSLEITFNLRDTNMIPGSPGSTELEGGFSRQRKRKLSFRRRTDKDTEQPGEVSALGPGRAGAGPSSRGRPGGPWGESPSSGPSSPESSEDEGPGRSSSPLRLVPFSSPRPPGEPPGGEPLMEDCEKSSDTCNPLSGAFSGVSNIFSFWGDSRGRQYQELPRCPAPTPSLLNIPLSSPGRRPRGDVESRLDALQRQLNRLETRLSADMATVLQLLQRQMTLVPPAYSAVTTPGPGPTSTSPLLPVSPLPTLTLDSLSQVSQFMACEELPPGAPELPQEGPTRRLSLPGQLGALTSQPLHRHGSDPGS
Test: Inhibition of hERG expressed in CHO cells measured for 30 mins by electrophysiological automated patch clamp assay
Format: toxicity, cell-based
# pIC50 is unitless: minus log10 of the molar concentration; print number only

Measured pIC50 (Voltage-gated inwardly rectifying potassium channel KCNH2 (Homo sapiens, UniProt Q12809)), entry O=S(=O)(c1ccccc1)c1c[nH]c2c(C3CCN(CCc4c[nH]c5ccc(Cl)cc45)CC3)cccc12 : 5.15

Field pIC50 (system: Voltage-gated inwardly rectifying potassium channel KCNH2 (Homo sapiens, UniProt Q12809)) for entry N#Cc1ccc2[nH]cc(CCCCN3CCN(c4cccc5c4ccn5S(=O)(=O)c4ccccc4)CC3)c2c1 = 5.80

Bench note, Voltage-gated inwardly rectifying potassium channel KCNH2 (Homo sapiens, UniProt Q12809): O=S(=O)(c1ccccc1)n1ccc2c(N3CCN(CCc4c[nH]c5ccc(Cl)cc45)CC3)cccc21 , pIC50 reads 4.67

Given the molecule O=S(=O)(c1ccccc1)c1c[nH]c2c(C3CCN(CCCc4c[nH]c5ccc(Cl)cc45)CC3)cccc12 and test system Voltage-gated inwardly rectifying potassium channel KCNH2 (Homo sapiens, UniProt Q12809), the measured pIC50 is 5.02

# O=c1[nH]c2c(N3CCN(CCCc4c[nH]c5ccc(Cl)cc45)CC3)cccc2n1Cc1ccccc1 with Voltage-gated inwardly rectifying potassium channel KCNH2 (Homo sapiens, UniProt Q12809): pIC50 is 5.60

Bench note, Voltage-gated inwardly rectifying potassium channel KCNH2 (Homo sapiens, UniProt Q12809): entry Cc1c(OCc2ccccc2)cccc1N1CCN(CCc2c[nH]c3ccc(Cl)cc23)CC1 , its pIC50 = 5.18

Entry Cc1c(OCc2ccccc2)cccc1N1CCN(CCc2c[nH]c3ccc(F)cc23)CC1 , Voltage-gated inwardly rectifying potassium channel KCNH2 (Homo sapiens, UniProt Q12809) data, pIC50 value: 5.55

Bench note, Voltage-gated inwardly rectifying potassium channel KCNH2 (Homo sapiens, UniProt Q12809): O=S(=O)(c1ccccc1)c1c[nH]c2c(C3CCN(CCc4c[nH]c5ccc(F)cc45)CC3)cccc12 , pIC50 reads 4.53

The molecule Cc1c(OCc2ccccc2)cccc1N1CCN(CCCc2c[nH]c3ccc(F)cc23)CC1 , tested on Voltage-gated inwardly rectifying potassium channel KCNH2 (Homo sapiens, UniProt Q12809), showed pIC50 of 5.48

Cc1c(OCc2ccccc2)cccc1N1CCN(CCCc2c[nH]c3ccc(Cl)cc23)CC1 on Voltage-gated inwardly rectifying potassium channel KCNH2 (Homo sapiens, UniProt Q12809) gives pIC50 = 4.87

Form: item O=S(=O)(c1ccccc1)n1ccc2c(N3CCN(CCCc4c[nH]c5ccc(Cl)cc45)CC3)cccc21 ; test system Voltage-gated inwardly rectifying potassium channel KCNH2 (Homo sapiens, UniProt Q12809); pIC50: 6.15

Lab entry: Voltage-gated inwardly rectifying potassium channel KCNH2 (Homo sapiens, UniProt Q12809) assay, molecule N#Cc1ccc2[nH]cc(CCCCN3CCN(c4cccc5c4[nH]c(=O)n5Cc4ccccc4)CC3)c2c1 , pIC50 = 5.96

Observed pIC50 on Voltage-gated inwardly rectifying potassium channel KCNH2 (Homo sapiens, UniProt Q12809), entry Cc1c(OCc2ccccc2)cccc1N1CCN(CCCCc2c[nH]c3ccc(C#N)cc23)CC1 , equals 5.31

Measured pIC50 (Voltage-gated inwardly rectifying potassium channel KCNH2 (Homo sapiens, UniProt Q12809)), entry N#Cc1ccc2[nH]cc(CCCN3CCN(c4cccc5c4[nH]c(=O)n5Cc4ccccc4)CC3)c2c1 : 5.92

Kindly note: Voltage-gated inwardly rectifying potassium channel KCNH2 (Homo sapiens, UniProt Q12809), O=S(=O)(c1ccccc1)c1c[nH]c2c(C3CCN(CCCc4c[nH]c5ccc(F)cc45)CC3)cccc12 , pIC50 value reported: 5.30

# pIC50 measured on Voltage-gated inwardly rectifying potassium channel KCNH2 (Homo sapiens, UniProt Q12809) for item N#Cc1ccc2[nH]cc(CCCN3CCN(c4cccc5c4ccn5S(=O)(=O)c4ccccc4)CC3)c2c1 = 5.77

Tested system Voltage-gated inwardly rectifying potassium channel KCNH2 (Homo sapiens, UniProt Q12809); pIC50 recorded for Cc1c(OCc2ccccc2)cccc1N1CCN(CCc2c[nH]c3ccc(C#N)cc23)CC1 was 5.44

Entry Cc1c(OCc2ccccc2)cccc1N1CCN(CCCc2c[nH]c3ccc(C#N)cc23)CC1 under Voltage-gated inwardly rectifying potassium channel KCNH2 (Homo sapiens, UniProt Q12809) had pIC50 of 5.96

Form field, pIC50 with Voltage-gated inwardly rectifying potassium channel KCNH2 (Homo sapiens, UniProt Q12809), item O=c1[nH]c2c(N3CCN(CCc4c[nH]c5ccc(F)cc45)CC3)cccc2n1Cc1ccccc1 : 5.41

Item N#Cc1ccc2[nH]cc(CCN3CCN(c4cccc5c4ccn5S(=O)(=O)c4ccccc4)CC3)c2c1 ; assay system Voltage-gated inwardly rectifying potassium channel KCNH2 (Homo sapiens, UniProt Q12809); pIC50 reported as 5.05
